Numbers sourced from patent US7928102B2.

Assay: Gamma irradiation of aqueous 1% taurolidine solution, radiolysis products
Type: physicochemical
Conditions: approx. 25 gKy, aqueous 1% solution in 500 ml glass bottles
Items are presented alongside their recorded amount after γ-irradiation of a 1% taurolidine solution.
REPORTED_ENDPOINT: amount after γ-irradiation of a 1% taurolidine solution (mg)

INSERT INTO results (molecule, result_units, value) VALUES
  ('NCCS(=O)(=O)O', 'mg', 53),
  ('OCO', 'mg', 81),
  ('O=C=O', 'mg', 9.7),
  ('NCCS(N)(=O)=O [taurinamide]', 'mg', 85.5),
  ('O=S1(=O)CCN=CN1 [dehydrotaurultam]', 'mg', 780);
